The origin of these recorded values is patent US11807835B2.

I'd be grateful if you could share measured Relative Protease Enzyme Activity for these entries.
# Test system: protease
# Assay Details: Protease activity retention in detergent use solution (4000 ppm, 5 GPG water; peptidyl substrate, glycine buffer pH 9.0)
# Type: biochemical
# Run Parameters: base formula, phosphonate at 0.1% elemental phosphorus, use solution at 120° F., time 180 min
Numbers only, in %.

Some entries whose results are on file:
NCP(=O)(O)O :: 34.55
O=P(O)(O)CN(CP(=O)(O)O)CP(=O)(O)O :: 93.35

// batch mode: one Relative Protease Enzyme Activity value per listed entry
1. CC(O)(P(=O)(O)O)P(=O)(O)O
2. O=C(O)CCC(CC(=O)O)(C(=O)O)P(=O)(O)O (stereo not shown)

Data returned:
[0.74, 1.01]

----------
# Test system: protease
# Assay Details: Protease activity retention in detergent use solution (4000 ppm, 5 GPG water; peptidyl substrate, glycine buffer pH 9.0)
# Type: biochemical
# Run Parameters: base formula, phosphonate 0.6 wt-%, use solution at 120° F., time 210 min
I'd be grateful if you could share measured Relative Protease Enzyme Activity for these entries.
Answers are plain numbers, in %.

Some entries whose results are on file:
O=C(O)CCC(CC(=O)O)(C(=O)O)P(=O)(O)O (stereo not shown) [PBTC, Phosphonebutane tricarboxylic acid] :: 0.70
CC(O)(P(=O)(O)O)P(=O)(O)O [HEDP] :: 0.71
NCP(=O)(O)O [AMPA, Aminomethyl phosphonic acid] :: 43.42

Then there is this compound:
Data request: // Relative Protease Enzyme Activity lookup, key: O=P(O)(O)CN(CP(=O)(O)O)CP(=O)(O)O [ATMP, Aminotri (methylene phosphonic acid)]
Data returned: 89.86

----------
# Tested on: amylase
# Assay Details: Amylase activity retention in detergent use solution (4000 ppm, 5 GPG water; ethylidene substrate EPS, HEPES buffer pH 8.0)
# Format: biochemical
# Run Parameters: base formula, phosphonate 0.6 wt-%, use solution at 120º F., time 240 min
Reported Metric: Relative Amylase Enzyme Activity (%)
Numbers only, in %.

Some entries whose results are on file:
NCP(=O)(O)O :: 81.87
O=P(O)(O)CN(CP(=O)(O)O)CP(=O)(O)O :: 86.75
CC(O)(P(=O)(O)O)P(=O)(O)O :: 92.50

Data request: // Relative Amylase Enzyme Activity lookup, key: O=C(O)CCC(CC(=O)O)(C(=O)O)P(=O)(O)O (stereo not shown)
Data returned: 97.07

----------
# Tested on: protease
# Assay Details: Protease activity retention in detergent use solution (4000 ppm, 5 GPG water; peptidyl substrate, glycine buffer pH 9.0)
# Type: biochemical
# Run Parameters: base formula, phosphonate at 0.1% elemental phosphorus, use solution at 120° F., time 5 min
I'd be grateful if you could share measured Relative Protease Enzyme Activity for these entries.

Some entries whose results are on file:
O=C(O)CCC(CC(=O)O)(C(=O)O)P(=O)(O)O (stereo not shown) :: 86.68%
O=P(O)(O)CN(CP(=O)(O)O)CP(=O)(O)O :: 122.55%

// batch mode: one Relative Protease Enzyme Activity value per listed entry
1. CC(O)(P(=O)(O)O)P(=O)(O)O
2. NCP(=O)(O)O

Data returned:
1. 77.74%
2. 100.00%

----------
I'd be grateful if you could share measured Relative Lipase Enzyme Activity for these entries.
# System: lipase
# Assay Details: Lipase activity retention in detergent use solution (4000 ppm, 5 GPG water; p-nitrophenyl valerate, TRIS buffer pH 8.0)
# Type: biochemical
# Run Parameters: base formula, phosphonate at 0.1% elemental phosphorus, at 120º F. or at room temperature (as titled), time 240 min
Give bare numbers, in %.

O=P(O)(O)CN(CP(=O)(O)O)CP(=O)(O)O :: 15.64
CC(O)(P(=O)(O)O)P(=O)(O)O :: 7.70

// batch mode: one Relative Lipase Enzyme Activity value per listed entry
1. O=C(O)CCC(CC(=O)O)(C(=O)O)P(=O)(O)O (stereo not shown)
2. NCP(=O)(O)O

Data returned:
[9.12, 16.10]
